Value source: the supplement of paper PMC6555819

- System: RARb homodimer (NR concentration 270 nM)
- protocolText: PBM binding z-score (relative to random genomic background probes); higher = stronger binding; sequences stand for … in GC…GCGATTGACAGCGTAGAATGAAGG
Below, each of the sequences is paired with its reported PBM binding z-score value.
Keep it simple and answer with nothing but the number.

Solved entries (count: 5):
seq	PBM binding z-score
CGAAGTAGGTCAAAGGACAGTGAAAGGCGACGTA	3.05
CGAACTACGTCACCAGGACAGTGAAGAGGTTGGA	0.196
CCTTACGGTTCACTGACAGGTTATAGCATTTGGA	1.26
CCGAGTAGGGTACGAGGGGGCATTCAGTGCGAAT	1.62
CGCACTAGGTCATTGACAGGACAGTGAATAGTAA	2.68

Notebook: "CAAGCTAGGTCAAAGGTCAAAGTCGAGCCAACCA" , PBM binding z-score read as 5.17

###

- System: PPARg:RXRa IVT, anti-PPARg (NR concentration 270 nM, RXRa partner concentration 90 nM)
- protocolText: PBM binding z-score (relative to random genomic background probes); higher = stronger binding; sequences stand for … in GC…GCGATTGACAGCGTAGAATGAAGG
Below, each of the sequences is paired with its reported PBM binding z-score value.
Keep it simple and answer with nothing but the number.

seq	resultValue
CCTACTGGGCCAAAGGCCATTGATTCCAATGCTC	4.27
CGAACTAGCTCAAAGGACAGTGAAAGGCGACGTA	-0.285

Notebook: "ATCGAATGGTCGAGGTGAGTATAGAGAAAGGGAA" , PBM binding z-score read as 0.658

###

- System: LXRa homodimer (NR concentration 270 nM)
- protocolText: PBM binding z-score (relative to random genomic background probes); higher = stronger binding; sequences stand for … in GC…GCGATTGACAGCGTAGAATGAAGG
Below, each of the sequences is paired with its reported PBM binding z-score value.
Keep it simple and answer with nothing but the number.

Solved entries (count: 2):
seq	resultValue
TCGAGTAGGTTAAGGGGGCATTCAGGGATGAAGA	1.01
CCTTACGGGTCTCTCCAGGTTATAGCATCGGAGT	0.136

With those in mind, consider the next sequence.
Notebook: "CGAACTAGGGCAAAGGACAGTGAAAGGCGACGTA" , PBM binding z-score read as -0.336

###

- Test system: PPARg:RXRa (NR concentration 180 nM, RXRa partner concentration 90 nM)
- protocolText: PBM binding z-score (relative to random genomic background probes); higher = stronger binding; sequences stand for … in GC…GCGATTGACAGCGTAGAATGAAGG
measuredProperty: PBM binding z-score

Solved entries (count: 5):
seq	resultValue
TGTCAAAGCTCAAAGGTAACGTAAGTATCCACAC	1.25
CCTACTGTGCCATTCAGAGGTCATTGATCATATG	1.74
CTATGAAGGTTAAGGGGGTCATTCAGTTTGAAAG	5.21
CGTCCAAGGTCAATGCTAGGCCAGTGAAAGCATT	3.02
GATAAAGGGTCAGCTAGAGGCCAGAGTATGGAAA	4.3

With those in mind, consider the next sequence.
Notebook: "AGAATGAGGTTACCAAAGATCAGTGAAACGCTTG" , PBM binding z-score read as 2.6

###

- System: RARb homodimer (NR concentration 270 nM)
- protocolText: PBM binding z-score (relative to random genomic background probes); higher = stronger binding; sequences stand for … in GC…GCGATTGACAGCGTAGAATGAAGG
measuredProperty: PBM binding z-score
Keep it simple and answer with nothing but the number.

Solved entries (count: 2):
seq	resultValue
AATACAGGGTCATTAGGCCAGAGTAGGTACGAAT	2.95
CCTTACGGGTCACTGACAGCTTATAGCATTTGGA	2.97

Notebook: "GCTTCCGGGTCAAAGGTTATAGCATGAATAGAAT" , PBM binding z-score read as 2.99

Notebook: "GCTGCTAGGTCAACTGAAGGTCAGCTAAAGCTCG" , PBM binding z-score read as 5.31

###

- Tested on: RARb:RXRa (NR concentration 270 nM, RXRa partner concentration 90 nM)
- protocolText: PBM binding z-score (relative to random genomic background probes); higher = stronger binding; sequences stand for … in GC…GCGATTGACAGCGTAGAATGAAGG
Below, each of the sequences is paired with its reported PBM binding z-score value.
Keep it simple and answer with nothing but the number.

Notebook: "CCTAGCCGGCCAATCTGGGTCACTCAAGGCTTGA" , PBM binding z-score read as 1.4

Notebook: "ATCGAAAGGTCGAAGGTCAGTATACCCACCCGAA" , PBM binding z-score read as 4.54

###

Below, each of the sequences is paired with its reported PBM binding z-score value.
- System: VDR:RXRa (NR concentration 270 nM, RXRa partner concentration 90 nM)
- protocolText: PBM binding z-score (relative to random genomic background probes); higher = stronger binding; sequences stand for … in GC…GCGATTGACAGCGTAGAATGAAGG

Solved entries (count: 2):
seq	resultValue
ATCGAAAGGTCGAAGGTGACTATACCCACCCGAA	2.9
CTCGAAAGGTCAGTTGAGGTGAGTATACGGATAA	4.7

Measured PBM binding z-score (VDR:RXRa (NR concentration 270 nM, RXRa partner concentration 90 nM)), entry "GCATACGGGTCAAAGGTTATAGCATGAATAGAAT" : 5.37

Measured PBM binding z-score (VDR:RXRa (NR concentration 270 nM, RXRa partner concentration 90 nM)), entry "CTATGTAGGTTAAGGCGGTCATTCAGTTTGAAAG" : 3.84

Measured PBM binding z-score (VDR:RXRa (NR concentration 270 nM, RXRa partner concentration 90 nM)), entry "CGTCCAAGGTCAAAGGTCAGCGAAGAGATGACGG" : 6.91

Measured PBM binding z-score (VDR:RXRa (NR concentration 270 nM, RXRa partner concentration 90 nM)), entry "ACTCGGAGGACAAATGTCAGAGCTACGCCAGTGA" : -0.292

Measured PBM binding z-score (VDR:RXRa (NR concentration 270 nM, RXRa partner concentration 90 nM)), entry "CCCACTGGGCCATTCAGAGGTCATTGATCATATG" : 4.02

Measured PBM binding z-score (VDR:RXRa (NR concentration 270 nM, RXRa partner concentration 90 nM)), entry "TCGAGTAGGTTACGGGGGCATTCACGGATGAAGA" : 3.95

###

- Test system: PPARa:RXRa (NR concentration 270 nM, RXRa partner concentration 90 nM)
- protocolText: PBM binding z-score (relative to random genomic background probes); higher = stronger binding; sequences stand for … in GC…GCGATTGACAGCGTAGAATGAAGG
measuredProperty: PBM binding z-score

Solved entries (count: 2):
seq	PBM binding z-score
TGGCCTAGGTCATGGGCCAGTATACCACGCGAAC	3.93
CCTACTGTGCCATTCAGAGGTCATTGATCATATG	3.96

With those in mind, consider the next sequence.
Notebook: "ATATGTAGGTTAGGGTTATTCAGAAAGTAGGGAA" , PBM binding z-score read as 4.11

###

- Tested on: FXR:RXRa (NR concentration 270 nM, RXRa partner concentration 90 nM)
- protocolText: PBM binding z-score (relative to random genomic background probes); higher = stronger binding; sequences stand for … in GC…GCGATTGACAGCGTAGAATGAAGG
PBM binding z-score vs 3: at or above is fulfilled, below is not fulfilled.

Use these answered entries as a reference point.
seq	classification
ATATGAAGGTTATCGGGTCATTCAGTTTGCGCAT	fulfilled
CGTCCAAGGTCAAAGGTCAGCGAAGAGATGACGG	fulfilled
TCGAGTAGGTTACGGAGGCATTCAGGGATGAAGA	not fulfilled
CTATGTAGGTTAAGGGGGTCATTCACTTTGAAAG	fulfilled
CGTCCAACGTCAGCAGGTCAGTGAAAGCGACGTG	not fulfilled

Enquiry: Is PBM binding z-score at least 3? Consider "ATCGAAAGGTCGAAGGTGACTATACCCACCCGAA"
Return: fulfilled

Enquiry: Is PBM binding z-score at least 3? Consider "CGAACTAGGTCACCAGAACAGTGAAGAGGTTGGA"
Return: fulfilled

Enquiry: Is PBM binding z-score at least 3? Consider "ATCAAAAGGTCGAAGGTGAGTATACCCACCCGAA"
Return: fulfilled

Enquiry: Is PBM binding z-score at least 3? Consider "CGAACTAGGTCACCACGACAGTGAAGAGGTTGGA"
Return: fulfilled

Enquiry: Is PBM binding z-score at least 3? Consider "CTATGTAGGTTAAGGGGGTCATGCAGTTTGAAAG"
Return: fulfilled

Enquiry: Is PBM binding z-score at least 3? Consider "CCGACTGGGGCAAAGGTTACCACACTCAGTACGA"
Return: not fulfilled

Enquiry: Is PBM binding z-score at least 3? Consider "CCTTACGGGTCTAGGTTATAGCACGGGTGGTACG"
Return: not fulfilled

Enquiry: Is PBM binding z-score at least 3? Consider "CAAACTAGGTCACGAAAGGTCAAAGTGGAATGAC"
Return: fulfilled

Enquiry: Is PBM binding z-score at least 3? Consider "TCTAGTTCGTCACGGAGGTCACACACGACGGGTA"
Return: fulfilled

Enquiry: Is PBM binding z-score at least 3? Consider "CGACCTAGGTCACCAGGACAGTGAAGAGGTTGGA"
Return: fulfilled

Enquiry: Is PBM binding z-score at least 3? Consider "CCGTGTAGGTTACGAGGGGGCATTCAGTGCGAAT"
Return: not fulfilled

Enquiry: Is PBM binding z-score at least 3? Consider "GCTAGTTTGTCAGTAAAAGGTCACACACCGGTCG"
Return: fulfilled
